Numbers sourced from paper PMC8235783.

measurementProtocol: in vivo
condition: female, BALB/c, mouse, iv, 20 pmol peptide, total radioactivity
readoutName: tissue uptake dose at 1.5 h
Could you kindly put the unit after your number?

// sample CCCC[C@@H](C(=O)N[C@@H](CC(=O)O)C(=O)N[C@@H](Cc1cccc2ccccc12)C(N)=O)N(C)C(=O)[C@H](Cc1c[nH]c2ccccc12)NC(=O)CNC(=O)[C@H](Cc1ccc(O)cc1)NC(=O)[C@H](C)NC(=O)[C@@H](CCC(=O)O)NC(=O)CN1CCN(CC(=O)O)CCN(CC(=O)O)CCN(CC(=O)O)CC1 [^68Ga-DOTA-MGS5, metal not drawn] , its tissue uptake dose at 1.5 h was 11.4 %ID
